I'd be grateful if you could share measured Test E disease control rating for these entries.
System: Septoria tritici
MEASUREMENT_NOTES: Test E: wheat leaf blotch, test suspension sprayed on wheat seedlings, disease rating;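 note: 200 ppm unless marked * meaning 40 ppm or ** meaning 10 ppm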
Assay type: in vivo
TEST_SETTINGS: 200 ppm test suspension
Supply the numeric figure in %, leaving out any unit text.

Tell me Test E disease control rating of CCNc1nccc(-c2c(-c3ccccc3)nn3c2COCC3)n1 when tested on Septoria tritici.
100

Tell me Test E disease control rating of OCC(CO)Nc1nccc(-c2c(-c3ccc(F)cc3)nn3c2CCCC3)n1 when tested on Septoria tritici.
82

Tell me Test E disease control rating of Cc1cc(-c2nn3c(c2-c2ccnc(NC(C)CO)n2)COCC3)ccc1F (stereo not drawn) when tested on Septoria tritici.
31

Tell me Test E disease control rating of C[Si](C)(C)CNc1nccc(-c2c(-c3ccc(F)cc3)nn3c2CCCC3)n1 when tested on Septoria tritici.
100

Tell me Test E disease control rating of CC(C)Nc1nccc(-c2c(-c3cccc(F)c3)nn3c2CCC3)n1 when tested on Septoria tritici.
100

Tell me Test E disease control rating of Fc1ccc(-c2nn3c(c2-c2ccnc(NC4CC4)n2)CCCC3)c(F)c1 when tested on Septoria tritici.
96

Tell me Test E disease control rating of CCC(C)Nc1nccc(-c2c(-c3ccc(F)cc3)nn3c2CCCC3)n1 (stereo not drawn) when tested on Septoria tritici.
97

Tell me Test E disease control rating of CC(CO)Nc1nccc(-c2c(-c3ccccc3F)nn3c2CCCC3)n1 (stereo not drawn) when tested on Septoria tritici.
92

Tell me Test E disease control rating of Fc1ccccc1-c1nn2c(c1-c1ccnc(NC3CC3)n1)CCC2 when tested on Septoria tritici.
98

Tell me Test E disease control rating of CC(C)Nc1nccc(-c2c(-c3ccc(F)cc3)nn3c2CCCC3)n1.Cl when tested on Septoria tritici.
100

Tell me Test E disease control rating of Fc1ccc(-c2nn3c(c2-c2ccnc(NC4CC4)n2)COCC3)c(F)c1 when tested on Septoria tritici.
70

Tell me Test E disease control rating of CC(CO)Nc1nccc(-c2c(-c3ccc(F)cc3)nn3c2CCCC3)n1 (stereo not drawn) when tested on Septoria tritici.
97

Tell me Test E disease control rating of Fc1ccc(-c2nn3c(c2-c2ccnc(NC4CCCC4)n2)CCCC3)cc1 when tested on Septoria tritici.
99

Tell me Test E disease control rating of CC(C)Nc1nccc(-c2c(-c3ccsc3)nn3c2CCCC3)n1 when tested on Septoria tritici.
96

Tell me Test E disease control rating of COCC(C)Nc1nccc(-c2c(-c3cccc(F)c3)nn3c2CCC3)n1 (stereo not drawn) when tested on Septoria tritici.
92

Tell me Test E disease control rating of CONc1nccc(-c2c(-c3ccc(F)cc3)nn3c2CCCC3)n1 when tested on Septoria tritici.
98

Tell me Test E disease control rating of COc1cc(Nc2nccc(-c3c(-c4ccccc4)nn4c3CCCC4)n2)ccc1F when tested on Septoria tritici.
100

Tell me Test E disease control rating of Fc1cc(F)cc(-c2nn3c(c2-c2ccnc(NC4CC4)n2)CCC3)c1 when tested on Septoria tritici.
88

Tell me Test E disease control rating of CC(C)CNc1nccc(-c2c(-c3ccc(F)cc3)nn3c2CCCC3)n1 when tested on Septoria tritici.
85

Tell me Test E disease control rating of Cc1ccccc1-c1nn2c(c1-c1ccnc(NC(C)CO)n1)CCCC2 (stereo not drawn) when tested on Septoria tritici.
50

Tell me Test E disease control rating of C[C@@H](CO)Nc1nccc(-c2c(-c3ccc(F)cc3)nn3c2CCCC3)n1 when tested on Septoria tritici.
99

Tell me Test E disease control rating of CCC(C)c1ccc(Nc2nccc(-c3c(-c4ccc(F)cc4)nn4c3CCCC4)n2)cc1 (stereo not drawn) when tested on Septoria tritici.
0

Tell me Test E disease control rating of Fc1ccc(-c2nn3c(c2-c2ccnc(NCc4cccs4)n2)CCCC3)cc1 when tested on Septoria tritici.
88

Tell me Test E disease control rating of Cc1ccccc1-c1nn2c(c1-c1ccnc(NC(C)C)n1)CCCC2 when tested on Septoria tritici.
97

Tell me Test E disease control rating of COCC(C)Nc1nccc(-c2c(-c3ccc(F)cc3)nn3c2CCCC3)n1 (stereo not drawn) when tested on Septoria tritici.
98

Tell me Test E disease control rating of Fc1ccc(-c2nn3c(c2-c2ccnc(N4CCC4)n2)CCCC3)cc1 when tested on Septoria tritici.
97

Tell me Test E disease control rating of CCCNc1nccc(-c2c(-c3ccc(F)cc3)nn3c2CCCC3)n1 when tested on Septoria tritici.
98

Tell me Test E disease control rating of CC(CO)Nc1nccc(-c2c(-c3ccc(F)cc3)nn3c2CSCC3)n1 (stereo not drawn) when tested on Septoria tritici.
31

Tell me Test E disease control rating of CC(C)CNc1nccc(-c2c(-c3ccccc3F)nn3c2CCC3)n1 when tested on Septoria tritici.
95

Tell me Test E disease control rating of CNc1nccc(-c2c(-c3cccc(C)c3)nn3c2CCCC3)n1 when tested on Septoria tritici.
99

Tell me Test E disease control rating of CCCC(C)Nc1nccc(-c2c(-c3ccc(F)cc3)nn3c2CCCC3)n1 (stereo not drawn) when tested on Septoria tritici.
90

Tell me Test E disease control rating of CC(C)(CO)Nc1nccc(-c2c(-c3ccc(F)cc3)nn3c2CCCC3)n1 when tested on Septoria tritici.
93

Tell me Test E disease control rating of CC(CO)Nc1nccc(-c2c(-c3ccsc3)nn3c2CCCC3)n1 (stereo not drawn) when tested on Septoria tritici.
59

Tell me Test E disease control rating of CCN1CCCC1CNc1nccc(-c2c(-c3ccc(F)cc3)nn3c2CCCC3)n1 (stereo not drawn) when tested on Septoria tritici.
50

Tell me Test E disease control rating of Fc1ccc(-c2nn3c(c2-c2ccnc(NC4CCOCC4)n2)CCCC3)cc1 when tested on Septoria tritici.
90

Tell me Test E disease control rating of Fc1ccc(-c2nn3c(c2-c2ccnc(Nc4ccc(OC(F)(F)F)cc4)n2)CCCC3)cc1 when tested on Septoria tritici.
71
